B1: library; a variant is named by its letters at N, in order (parent)
chain: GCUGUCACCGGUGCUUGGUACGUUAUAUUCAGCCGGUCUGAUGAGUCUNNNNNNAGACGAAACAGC

variants of: B1; test: normalized RNA/DNA level with ligand (relative to sTRSVctl = 100) (log10 (% of sTRSVctl)); HEK293T overexpressing SLC46A1; ligand concentration (+) RNA-Seq: 6 mM; higher = less ribozyme self-cleavage, higher mRNA level; details: with (6R,S)-folinic acid; ligand present: yes
In this section we review reported normalized RNA/DNA level with ligand (log10) values for a set of variants.
measurement type: normalized RNA/DNA level with ligand (log10)

{"variant annotation": "UCUCAU", "value": 2.02}
{"variant annotation": "ACUGCU", "value": 2.01}
{"variant annotation": "CCGAUG", "value": 1.99}
{"variant annotation": "GAAUAG", "value": 2.01}
{"variant annotation": "UUUUUG", "value": 2}
{"variant annotation": "UUCCCC", "value": 1.99}
{"variant annotation": "GUCCGU", "value": 2.02}
{"variant annotation": "AUUAAA", "value": 1.99}
{"variant annotation": "GGUAAC", "value": 2.01}
{"variant annotation": "UAGCUG", "value": 2.03}
{"variant annotation": "CCUCCC", "value": 2.04}
{"variant annotation": "ACUUGG", "value": 2}
{"variant annotation": "UCUACU", "value": 2.03}
{"variant annotation": "CCUAAG", "value": 2}
{"variant annotation": "AACUAG", "value": 2.02}
{"variant annotation": "AAUCUG", "value": 2.04}
{"variant annotation": "UACGUU", "value": 2}
{"variant annotation": "ACUUGC", "value": 2.03}
{"variant annotation": "UCUGUG", "value": 2}
{"variant annotation": "GUCGCA", "value": 2.01}
{"variant annotation": "AAUCUC", "value": 2.04}
{"variant annotation": "CAAGCA", "value": 2.03}
{"variant annotation": "UAGGAA", "value": 1.98}
{"variant annotation": "GGAGGG", "value": 2.04}
{"variant annotation": "UGCGUA", "value": 1.98}
{"variant annotation": "AAGCGU", "value": 2.02}
{"variant annotation": "UUCCAU", "value": 1.99}
{"variant annotation": "UCUAUU", "value": 2.05}
{"variant annotation": "UGACGG", "value": 1.99}
{"variant annotation": "CAGCCA", "value": 2.01}
{"variant annotation": "AACAAC", "value": 2.02}
{"variant annotation": "ACUGCG", "value": 2.01}
{"variant annotation": "ACACCA", "value": 2.03}
{"variant annotation": "CGCGAA", "value": 2.01}
{"variant annotation": "CACCCA", "value": 2.01}
{"variant annotation": "CCUCGC", "value": 2.03}
{"variant annotation": "AAUCCA", "value": 1.99}
{"variant annotation": "CGAUAG", "value": 1.98}
{"variant annotation": "CUCUCU", "value": 2.02}
{"variant annotation": "CGGGGC", "value": 2}
{"variant annotation": "AAUCCG", "value": 2.02}
